# Species: Homo sapiens
# Experimental Protocol: Selectivity index, ratio of IC50 for human recombinant MAO-A to IC50 for human recombinant MAO-B
Metric Name: Ratio IC50
Field format: numeric only.

Sample answers from the record:
Query block: Return Ratio IC50 (reported value) for this compound: Cc1cccc(SCc2nc3c(c(=O)n(C)c(=O)n3C)n2C)c1
Result block: 3

Query block: # return recorded Ratio IC50 for entry Cn1c(=O)c2c(nc(CSc3cccc(Br)c3)n2C)n(C)c1=O
Result block: 5

Query block: Return the recorded Ratio IC50 value; entry: Cc1cccc(OCc2nc3c(c(=O)n(C)c(=O)n3C)n2C)c1
Result block: 15

Query block: # return recorded Ratio IC50 for entry Cn1c(=O)c2c(nc(COc3cccc(Br)c3)n2C)n(C)c1=O
Result block: 230

Query block: Consider the compound Cn1c(=O)c2c(nc(CCSc3ccccc3)n2C)n(C)c1=O . State its measured Ratio IC50.
Result block: 1.3

Now take the following compound into account.
Query block: Please give the documented Ratio IC50 of Cn1c(=O)c2c(nc(CCSc3ccc(Cl)cc3)n2C)n(C)c1=O
Result block: 18

====

# Assayed Target: Amine oxidase [flavin-containing] B (Homo sapiens)
# Experimental Protocol: Inhibition of human recombinant MAO-B expressed in baculovirus infected insect cells using kynuramine as substrate after 20 mins by horseradish peroxidase-coupled assay
Here the recorded pIC50 is given for each entry.
In simple prose, pIC50 is minus the logarithm base ten of a concentration in moles per litre.

Query block: Quote pIC50 reported for Cn1c(=O)c2c(nc(COc3ccc(Cl)cc3)n2C)n(C)c1=O please.
Result block: 6.60

Query block: State, in one line, measured pIC50 of Cc1cccc(OCc2nc3c(c(=O)n(C)c(=O)n3C)n2C)c1
Result block: 5.91

Query block: Provide only the value of recorded pIC50 for Cn1c(=O)c2c(nc(COc3cccc(Br)c3)n2C)n(C)c1=O
Result block: 6.83

Query block: Respond only with pIC50 recorded for Cn1c(=O)c2c(nc(COc3cccc(F)c3)n2C)n(C)c1=O
Result block: 5.79

====

# Assayed Target: Amine oxidase [flavin-containing] A (Homo sapiens, UniProt P21397)
# Sequence (P21397 whole entry): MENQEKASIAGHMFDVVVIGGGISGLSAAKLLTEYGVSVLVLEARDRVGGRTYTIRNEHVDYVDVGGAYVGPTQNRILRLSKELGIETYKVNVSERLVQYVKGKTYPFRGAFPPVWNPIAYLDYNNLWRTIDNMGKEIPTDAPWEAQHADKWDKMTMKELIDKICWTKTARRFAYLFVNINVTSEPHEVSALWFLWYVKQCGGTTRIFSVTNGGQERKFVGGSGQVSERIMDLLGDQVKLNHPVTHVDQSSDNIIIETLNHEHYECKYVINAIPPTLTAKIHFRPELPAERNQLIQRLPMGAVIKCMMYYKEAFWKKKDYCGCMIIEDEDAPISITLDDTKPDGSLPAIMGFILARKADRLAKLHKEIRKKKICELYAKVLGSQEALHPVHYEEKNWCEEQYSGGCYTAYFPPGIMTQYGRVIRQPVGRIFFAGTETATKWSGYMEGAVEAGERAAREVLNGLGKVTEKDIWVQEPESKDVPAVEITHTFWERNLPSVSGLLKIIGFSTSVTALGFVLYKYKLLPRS
# Experimental Protocol: Inhibition of human recombinant MAO-A expressed in baculovirus infected insect cells using kynuramine as substrate after 20 mins by fluorescence spectrophotometry
Metric Name: IC50 (µM)
Only the number, expressed in µM, is required.

Some solved cases for reference:
Query block: System Amine oxidase [flavin-containing] A (Homo sapiens, UniProt P21397). Read-out IC50. Item Cc1cccc(SCc2nc3c(c(=O)n(C)c(=O)n3C)n2C)c1 . Report value.
Result block: 51.8

Query block: Enter IC50 (test system Amine oxidase [flavin-containing] A (Homo sapiens, UniProt P21397)) for Cn1c(=O)c2c(nc(CSc3cccc(Cl)c3)n2C)n(C)c1=O
Result block: 19.4

Query block: Tell me IC50 of CCOc1cccc(SCc2nc3c(c(=O)n(C)c(=O)n3C)n2C)c1 when tested on Amine oxidase [flavin-containing] A (Homo sapiens, UniProt P21397).
Result block: 44.7

Others:
Query block: Find the measured IC50 of Cn1c(=O)c2c(nc(CSc3ccccc3)n2C)n(C)c1=O with Amine oxidase [flavin-containing] A (Homo sapiens, UniProt P21397) as test system.
Result block: 66.2

====

The entries below come with measured pIC50 values attached.
# Assayed Target: Amine oxidase [flavin-containing] B (Homo sapiens, UniProt P27338)
# Sequence (P27338 whole entry): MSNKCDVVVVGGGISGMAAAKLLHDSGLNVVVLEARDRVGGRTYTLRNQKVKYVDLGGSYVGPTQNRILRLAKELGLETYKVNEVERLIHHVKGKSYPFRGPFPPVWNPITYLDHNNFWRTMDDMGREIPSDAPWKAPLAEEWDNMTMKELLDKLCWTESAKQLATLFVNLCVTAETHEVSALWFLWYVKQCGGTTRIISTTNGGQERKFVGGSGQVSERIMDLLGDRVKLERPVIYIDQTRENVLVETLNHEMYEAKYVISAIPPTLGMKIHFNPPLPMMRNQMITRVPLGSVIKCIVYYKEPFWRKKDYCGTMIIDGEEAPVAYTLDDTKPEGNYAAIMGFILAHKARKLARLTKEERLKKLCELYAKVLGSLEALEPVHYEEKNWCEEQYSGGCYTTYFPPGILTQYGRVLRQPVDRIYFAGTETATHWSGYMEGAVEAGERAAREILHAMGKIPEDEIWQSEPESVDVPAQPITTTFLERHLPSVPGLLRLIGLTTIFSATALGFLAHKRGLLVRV
# Experimental Protocol: Inhibition of human recombinant MAO-B expressed in baculovirus infected insect cells using kynuramine as substrate after 20 mins by fluorescence spectrophotometry
Note: pIC50 values are expressed as the negative base-10 logarithm of concentration in M.

Use the examples below as a reference point.
Query block: Fetch value of pIC50 on Amine oxidase [flavin-containing] B (Homo sapiens, UniProt P27338) for Cc1cccc(SCc2nc3c(c(=O)n(C)c(=O)n3C)n2C)c1 .
Result block: 4.75

Query block: Please look at Cn1c(=O)c2c(nc(CSc3cccc(Br)c3)n2C)n(C)c1=O and tell me its recorded pIC50 on Amine oxidase [flavin-containing] B (Homo sapiens, UniProt P27338).
Result block: 5.31

Query block: Print Amine oxidase [flavin-containing] B (Homo sapiens, UniProt P27338) pIC50 for COc1cccc(SCc2nc3c(c(=O)n(C)c(=O)n3C)n2C)c1 .
Result block: 5.07

Query block: State measured pIC50 of the compound CCOc1cccc(SCc2nc3c(c(=O)n(C)c(=O)n3C)n2C)c1 with Amine oxidase [flavin-containing] B (Homo sapiens, UniProt P27338).
Result block: 4.74

Query block: Give Amine oxidase [flavin-containing] B (Homo sapiens, UniProt P27338) pIC50 for the following compound: Cn1c(=O)c2c(nc(CSc3ccccc3)n2C)n(C)c1=O
Result block: 4.63

Query block: Report pIC50 from Amine oxidase [flavin-containing] B (Homo sapiens, UniProt P27338) testing of Cn1c(=O)c2c(nc(CSc3ccc(Br)cc3)n2C)n(C)c1=O
Result block: 5.39

More entries:
Query block: Please tell me the measured pIC50 for Cn1c(=O)c2c(nc(CSc3cccc(Cl)c3)n2C)n(C)c1=O ; system: Amine oxidase [flavin-containing] B (Homo sapiens, UniProt P27338).
Result block: 5.21

Query block: Look up Amine oxidase [flavin-containing] B (Homo sapiens, UniProt P27338) data: pIC50 of Cn1c(=O)c2c(nc(CSc3cccc(F)c3)n2C)n(C)c1=O , then report it.
Result block: 4.65

Query block: Determine reported pIC50 for Cn1c(=O)c2c(nc(CSc3ccc(Cl)cc3)n2C)n(C)c1=O ; test system: Amine oxidase [flavin-containing] B (Homo sapiens, UniProt P27338).
Result block: 5.16

====

The following compounds are listed with their measured IC50 values.
# Assayed Target: UniProt P21397
# Experimental Protocol: Inhibition of human recombinant MAO-A expressed in baculovirus infected insect cells using kynuramine as substrate after 20 mins by horseradish peroxidase-coupled assay
# Test Conditions: read-out: IC50
Dear colleague, please return just the value in µM, with no unit written.

// solved cases for IC50 follow
Query block: Send back UniProt P21397 IC50 of Cn1c(=O)c2c(nc(COc3cccc(C(F)(F)F)c3)n2C)n(C)c1=O only.
Result block: 4.59

Query block: Please tell me the measured IC50 for Cn1c(=O)c2c(nc(CCSc3ccc(Cl)cc3)n2C)n(C)c1=O ; system: UniProt P21397.
Result block: 142

Query block: Give IC50 for Cn1c(=O)c2c(nc(COc3cccc(Br)c3)n2C)n(C)c1=O tested on UniProt P21397.
Result block: 34

Query block: Consider the compound Cn1c(=O)c2c(nc(COc3ccc(Cl)cc3)n2C)n(C)c1=O tested on UniProt P21397; state its IC50.
Result block: 20.4

Query block: Provide UniProt P21397 IC50 reading for Cn1c(=O)c2c(nc(COc3cccc(F)c3)n2C)n(C)c1=O .
Result block: 13.2

Query block: Param request: IC50 | system UniProt P21397 | item Cn1c(=O)c2c(nc(CCSc3cccc(Br)c3)n2C)n(C)c1=O
Result block: 372

Query block: Give IC50 only, for Cc1cccc(OCc2nc3c(c(=O)n(C)c(=O)n3C)n2C)c1 , using UniProt P21397 data.
Result block: 18.8

Query block: Recall the reported IC50 of Cn1c(=O)c2c(nc(COc3ccc(F)cc3)n2C)n(C)c1=O when tested on UniProt P21397.
Result block: 8.22

Query block: With UniProt P21397 as the test system, provide measured IC50 for this compound: Cn1c(=O)c2c(nc(CCSc3ccc(Br)cc3)n2C)n(C)c1=O
Result block: 117

Query block: GET IC50 | system: UniProt P21397 | item: Cn1c(=O)c2c(nc(COc3ccccc3)n2C)n(C)c1=O
Result block: 21.1

New cases:
Query block: For UniProt P21397, give IC50 of the listed compound: Cn1c(=O)c2c(nc(CCSc3ccccc3)n2C)n(C)c1=O
Result block: 139

Query block: State IC50 (UniProt P21397) of Cn1c(=O)c2c(nc(COc3ccc(Br)cc3)n2C)n(C)c1=O .
Result block: 10.7
